- System: Toxoplasma gondii
- protocol description: ST_JUDE: Growth inhibition of to Toxoplasma gondii, in human U-2OS cells, as measured by luciferase.
- Assay type: functional, organism-based
- condition label: RH, U2OS
Give EC50 for every item shown.

Task item: Using the record for "Cc1ccccc1/N=C1\C=C(NS(=O)(=O)c2ccc(F)cc2)c2ccccc2C1=O" , report its EC50.
Reply: > 19.1 µM

Task item: Any idea what EC50 was measured for "Clc1ccc(Nc2nc(NCc3ccco3)c3ccccc3n2)cc1" ?
Reply: > 25.4 µM

Task item: Which EC50 reading was recorded for the compound CCCO/C(O)=C1\C(C)=NC2=C(C(=O)CC(c3ccc(OC)c(OC)c3)C2)C1c1ccccc1C (stereo not given) ?
Reply: > 22.6 µM

Task item: Using the record for "CCCn1c2c(c(=N)c3c1CCC3)CCCC2" , report its EC50.
Reply: > 22.1 µM

Task item: So what's the measured EC50 for this one? Cc1ccc(C2(c3ccc(C)cc3)CC2C(=O)Nc2ccc([N+](=O)[O-])cc2O)cc1 (stereo not given)
Reply: > 21.1 µM

Task item: Name the recorded EC50 for "CC(C)c1ccccc1Oc1c(C(F)(F)F)oc2c(CN3CCN(C)CC3)c(O)ccc2c1=O" .
Reply: > 11.5 µM

Task item: EC50 for COc1cc(C2CC(=O)NC3=C2C(=O)CC(c2ccccc2Cl)C3)cc(Br)c1O (stereo not given) ?
Reply: > 29.7 µM

Task item: Suppose we examine the compound COc1ccc(NC(=O)C2c3ccccc3C(=O)N(CC(C)C)C2c2cccs2)cc1OC (stereo not given) ; what EC50 value has been reported?
Reply: > 24.1 µM

Task item: Look up EC50 for this compound: "CCOc1ccc(N(C(C)=O)C2=C(N(C)C)C(=O)c3ccccc3C2=O)cc1"
Reply: 10.6 µM

Task item: Any idea what EC50 was measured for "Cc1ccc(C)c(N2CCN(Cc3cc(Br)ccc3O)CC2)c1" ?
Reply: > 19.5 µM

---

I'd appreciate it if you could supply pEC50 values for the items below.
- Tested on: Plasmodium falciparum
- protocol description: ST_JUDE: Cytotoxicity against Plasmodium falciparum Dd2
- Type: functional, organism-based
Please keep in mind that pEC50 is minus log10 of the molar concentration; only the number is needed.

Task item: API: value(readout=pEC50, system=Plasmodium falciparum) for record COCCO/C(O)=C1\C(C)=NC2=C(C(=O)CC(c3ccc(OC)c(OC)c3)C2)C1c1ccc(F)cc1 (configuration not stated)
Reply: 6.28

Task item: Give Plasmodium falciparum pEC50 for "Fc1ccc(Nc2nc(NCc3ccccc3)c3ccccc3n2)cc1"
Reply: 6.19

Task item: Can you look up pEC50 on Plasmodium falciparum for "O=S(=O)(c1ccc(Cl)cc1)N1CCN(C(=S)NCc2ccco2)CC1" ?
Reply: 6.07

Task item: Observed pEC50 on Plasmodium falciparum for CC(C)NCC(O)Cn1c2ccc(Cl)cc2c2cc(Cl)ccc21 (configuration not stated) , please.
Reply: 6.62

Task item: Request - read-out pEC50 | tested on Plasmodium falciparum | compound "Cc1ccc(C)c(N2CCN(Cc3cc(Br)ccc3O)CC2)c1"
Reply: 6.37

Task item: Request body: readout pEC50, system Plasmodium falciparum, query Cc1ccc(C(O)(CNCc2ccccc2)c2ccc(Br)cc2)cc1 (configuration not stated) . Return the value.
Reply: 5.83

Task item: // map CCCO/C(O)=C1\C(C)=NC2=C(C(=O)CC(c3ccc(OC)c(OC)c3)C2)C1c1ccccc1F (configuration not stated) to recorded pEC50 (system: Plasmodium falciparum)
Reply: 7.05

Task item: Provide value of pEC50 for this record tested with Plasmodium falciparum: "CCCCCCCn1ccc(=N)cc1"
Reply: 5.56

Task item: Give pEC50 (Plasmodium falciparum) of the following compound: "CC(C)c1ccc(S(=O)(=O)NC2=C/C(=N\c3ccc(O)cc3)C(=O)c3ccccc32)cc1"
Reply: 6.02

Task item: Can you look up pEC50 on Plasmodium falciparum for "Oc1ccc(Br)cc1CN1CCN(Cc2ccccc2F)CC1" ?
Reply: 5.75

Task item: Checklist item: pEC50 tested on Plasmodium falciparum, entry "COc1ccccc1Cn1ccnc1SCC(=O)Nc1cc(C(F)(F)F)ccc1Cl" , value?
Reply: 6.61

Task item: State its pEC50 on Plasmodium falciparum: Cc1ccc(C2(c3ccc(C)cc3)CC2C(=O)Nc2ccc([N+](=O)[O-])cc2O)cc1 (configuration not stated)
Reply: 5.68

Task item: API: value(readout=pEC50, system=Plasmodium falciparum) for record "CCCCCOc1ccc(N(C(C)=O)C2=C(N3CCOCC3)C(=O)c3ccccc3C2=O)cc1"
Reply: 5.83

Task item: Find the measured pEC50: item "COc1ccc(Nc2cc(C)c3ccc(O)cc3n2)cc1" , target or system Plasmodium falciparum.
Reply: 6.15

Task item: Test system Plasmodium falciparum; read-out pEC50; what value for "Cc1cc(C)nc(/N=C(\N)Nc2ccccc2O)n1" ?
Reply: 6.04

Task item: Give the reported pEC50 for CC(C)(C)c1cc(C2C(C#N)=C(N)OC3=C2C(=O)CCC3)cc(C(C)(C)C)c1O (configuration not stated) (system: Plasmodium falciparum).
Reply: 5.60

Task item: Value wanted: pEC50 (Plasmodium falciparum) of entry CC(=O)c1cccc(NC(=O)C2c3ccccc3C(=O)N(CC(C)C)C2c2cccs2)c1 (configuration not stated)
Reply: 6.41

---

- protocol description: ST_JUDE: Cytotoxicity using luciferase to measure ATP as an indicator of the viability of human epithelial hepatocellular carcinoma cells (HepG2)
- Assay type: toxicity, cell-based
pEC50: −log10 of the molar value.
Give measured pEC50 for each item. Keep answers brief.

Task item: Given the entry "COc1ccccc1/N=C1\C=C(NS(=O)(=O)c2ccc(C(C)C)cc2)c2ccccc2C1=O" , report its measured pEC50.
Reply: < 4.46

Task item: Requested field: pEC50. Item: Oc1ccc(Br)cc1CN1CCN(C2CC3CCC2C3)CC1 (stereo unspecified)
Reply: < 4.42

Task item: Suppose we examine the compound "O=[N+]([O-])c1cc(CN2CCN(c3cccc(C(F)(F)F)c3)CC2)c2cccnc2c1O" ; what pEC50 value has been reported?
Reply: < 4.50

Task item: Consider the compound shown here: "Cc1ccc(C)c(N2CCN(Cc3cc(Cl)ccc3O)CC2)c1" What is its recorded pEC50?
Reply: < 4.45

Task item: Using the record for "Cc1ccc2c(c1)N(CCO)/C(=C/c1sc3ccccc3[n+]1C)S2" , report its pEC50.
Reply: < 4.78

Task item: Endpoint output: pEC50 of CCCO/C(O)=C1\C(C)=NC2=C(C(=O)CC(c3ccc(OC)cc3)C2)C1c1ccc([N+](=O)[O-])cc1 (stereo unspecified) . Value?
Reply: < 4.34

---

- protocol description: ST_JUDE: Cytotoxicity using luciferase to measure ATP as an indicator of the viability of human epithelial embryonic kidney cells (HEK293)
- Format: toxicity, cell-based
Consider the following compounds; for each one, report its EC50.

Task item: Reported EC50 for "C=CCN1C=CC=C/C1=C\c1sc2ccccc2[n+]1C" : what is it?
Reply: > 35.4 µM

Task item: Find the recorded EC50 belonging to COC(=O)c1ccc(NC(=O)C2c3ccccc3C(=O)N(CC(C)C)C2c2cccs2)cc1 (configuration not stated) and report it.
Reply: > 38.7 µM

Task item: Consider the compound CCCO/C(O)=C1\C(C)=NC2=C(C(=O)CC(c3ccc(OC)c(OC)c3)C2)C1c1ccc(F)cc1 (configuration not stated) and give its measured EC50.
Reply: > 36.3 µM

Task item: Quick one: EC50 for "CCOC(=O)C1(Cc2cccc(C(F)(F)F)c2)CCN(Cc2ccccc2O)CC1" ?
Reply: > 41.3 µM

Task item: Request the reported EC50 associated with CCO/C(O)=C1\C(C)=NC2=C(C(=O)CC(c3ccc(OC)c(OC)c3)C2)C1c1cccc(Cl)c1 (configuration not stated)
Reply: > 41.9 µM

Task item: Look up EC50: "CC(C)c1ccccc1Oc1c(C(F)(F)F)oc2c(CN3CCN(C)CC3)c(O)ccc2c1=O"
Reply: > 21 µM

Task item: Which EC50 is reported for this compound? "CC(C)(C)c1ccc(S(=O)(=O)NC2=C/C(=N\c3ccc(O)cc3)C(=O)c3ccccc32)cc1"
Reply: 7.99 µM

Task item: Given the entry COc1ccc(C2CC3=NC(C)=C(C(=O)OC(C)C)C(c4ccccc4Cl)C3=C(O)C2)cc1OC (configuration not stated) , report its measured EC50.
Reply: > 41.2 µM

Task item: Need EC50 of C=CCn1c(=N)n(CC(O)c2ccc(Cl)c(Cl)c2)c2ccccc21 (configuration not stated) , thanks.
Reply: 39.2 µM

Task item: Which EC50 reading was recorded for the compound CO/C(O)=C1\C(C)=NC2=C(C(=O)CC(c3ccc(OC)c(OC)c3)C2)C1c1ccc(F)cc1 (configuration not stated) ?
Reply: > 46.3 µM

Task item: Param item = "CCOC(=O)C1(Cc2cccc(F)c2)CCN(Cc2ccccc2O)CC1" ; retrieve measured EC50.
Reply: > 52.6 µM

Task item: What EC50 value was documented for this compound, CCOC(=O)C1=C(C)N=c2s/c(=C\c3cc(Cl)ccc3O)c(=O)n2C1c1ccc(N(C)C)cc1 (configuration not stated) ?
Reply: > 18.2 µM

Task item: Please look up its EC50: "CCN(CC)CCCOC(=O)c1c(C)oc2cc3c(C(=O)OCCCN(CC)CC)c(C)oc3cc12"
Reply: 29.2 µM

Task item: Looking for the measured EC50 of "COc1ccccc1Cn1ccnc1SCC(=O)Nc1cc(C(F)(F)F)ccc1Cl" , can you help?
Reply: > 39.1 µM

Task item: For "Cc1cccc(N2CCN(Cc3ccccc3O)CC2)c1C" , what is its reported EC50?
Reply: > 32.7 µM

Task item: Reported EC50 for "CCOc1ccc(/C=C/c2nc(=O)c3ccccc3o2)cc1" : what is it?
Reply: > 39.9 µM

Task item: // EC50 lookup, key: "Nc1ccc(-c2nc3cc(-c4ccc5[nH]c(-c6ccc(N)cc6)nc5c4)ccc3[nH]2)cc1"
Reply: > 38.3 µM

Task item: If you can, please state the reported EC50 value of CCCCCCn1c(=N)n(CC(O)COc2ccccc2C)c2ccccc21 (configuration not stated) .
Reply: 20.3 µM

Task item: Which EC50 value belongs to CCN(CC)CCn1c(=N)n(CC(O)c2ccc(Cl)c(Cl)c2)c2ccccc21 (configuration not stated) ?
Reply: 30.7 µM

Task item: Can you look up the measured EC50 of "Clc1ccc(Nc2nc(NCc3ccco3)c3ccccc3n2)cc1" for me?
Reply: 31.2 µM

Task item: # get_value(readout='EC50', item= "c1ccc(CCNc2ccnc3cc4ccccc4cc23)cc1" )
Reply: 7.19 µM

Task item: For the compound COc1cc(C2CC(=O)NC3=C2C(=O)CC(c2ccccc2Cl)C3)cc(Br)c1O (configuration not stated) , what EC50 is on record?
Reply: > 54.2 µM

Task item: I'd like to know its EC50. The compound in question is "CCOc1ccc(N(C(C)=O)C2=C(N(C)C)C(=O)c3ccccc3C2=O)cc1"
Reply: > 30.2 µM

Task item: Record request: EC50 value, item CO/C(O)=C1\C(C)=NC2=C(C(=O)CC(c3ccc(OC)c(OC)c3)C2)C1c1ccccc1F (configuration not stated)
Reply: > 44.8 µM

Task item: Return reported EC50; argument: "CSC(=S)N/N=C(\c1ccccc1)c1ccccn1"
Reply: > 42.9 µM

Task item: Which EC50 reading was recorded for the compound COCCO/C(O)=C1\C(C)=NC2=C(C(=O)CC(c3ccc(OC)c(OC)c3)C2)C1c1ccccc1F (configuration not stated) ?
Reply: > 39.9 µM

Task item: Give its EC50 value. Item: "Fc1ccc(Nc2nc(NCc3ccco3)c3ccccc3n2)cc1"
Reply: 20 µM

Task item: Look at this compound and give its reported EC50. "CN1C(=O)/C(=C\c2ccccc2Cl)Sc2ccc(C(=O)NC3CCN(Cc4ccccc4)CC3)cc21"
Reply: > 42.5 µM

Task item: Endpoint output: EC50 of "CCOC(=O)c1cnc2c(OC)cccc2c1Nc1ccc(OC)c(OC)c1" . Value?
Reply: > 45.1 µM

Task item: Recorded EC50 for OC(CNC1CCCCC1)Cn1c2ccc(Cl)cc2c2cc(Cl)ccc21 (configuration not stated) , please?
Reply: > 38.8 µM

Task item: What value of EC50 has been recorded for this entry: COc1cc(OC)c(NC(=O)C2c3ccccc3C(=O)N(CC(C)C)C2c2cccs2)cc1Cl (configuration not stated)
Reply: > 45.1 µM

Task item: // query EC50 value for entry COc1ccc(C2CC(=O)C3=C(C2)NC(=O)CC3c2ccc(Br)cc2)cc1OC (configuration not stated)
Reply: > 47.5 µM
